Test system: FXR:RXRa (NR concentration 270 nM, RXRa partner concentration 90 nM)
protocol.details: PBM binding z-score (relative to random genomic background probes); higher = stronger binding; sequences stand for … in GC…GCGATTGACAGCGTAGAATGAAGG
Reported PBM binding z-score maps to class as: low: < 0.4; middle: ≥ 0.4 and < 2; high: ≥ 2

Below are worked cases with known answers.
- TCTTGTAGATTAGCAGGTTAAGAAAGCTGGCCAA: low
- TCTATTAGTTGAAGGGCAGCCGACGAGTCCGTTT: middle
- TCGAGTAGGTTACCAATGAGGCATTCAGCTTTCT: low
- TCATATCGGTAAATGCTAGGTGAAAGTCCGATCT: low

Query block: # bin label for TCTTGTAGATCAGAGGTTAAGAAAGCCGAAGCCT
Result block: middle

Query block: Lab note: which band did TCATATAGGTAATACAGGTGAAAATCGGCATCTA land in?
Result block: middle

Query block: Would you mind sorting CCTTACGGGTCACTCCAGGTTTTAGCATCGGAGT into the appropriate category?
Result block: high

Query block: In plain terms, what class is TTACCAAGGTGAAAGGTCGTTGTTGCACGCCTTG ?
Result block: high
